Literature IC50 values, system: TAK1/TAB1 (Homo sapiens, UniProt O43318).

Lookup: Provide value of IC50 for this record tested with TAK1/TAB1 (Homo sapiens, UniProt O43318): CC(C)COc1ncnc2[nH]cc(C#N)c12
Found: 560 nM

Lookup: Param readout = IC50; param system = TAK1/TAB1 (Homo sapiens, UniProt O43318); param query = Cc1ccc(NC(=O)c2ccn(-c3ccc(F)cc3)n2)cc1Oc1ccnc2[nH]ccc12 ; response: value
Found: ≥ 10000 nM

Lookup: Hello, I am looking for reported IC50 with TAK1/TAB1 (Homo sapiens, UniProt O43318) for CC(C)(O)CN1CCN(c2cnc3[nH]cc(/C=C/C(N)=O)c3c2)CC1 . Could you help?
Found: ≤ 1000 nM

###

pIC50: −log10 of the molar value.
Compiled record: pIC50 values for TAK1/TAB1 (Homo sapiens, UniProt O43318) across several sources.

# annotated cases, reported pIC50 shown
compound	pIC50
NC(=O)/C=C/c1c[nH]c2ncc(-c3cccnc3)cc12	≥ 6.00
CC(C)(O)c1cccc(-c2cnc3[nH]cc(/C=C/C(N)=O)c3c2)c1	≥ 6.00
NC(=O)/C=C/c1c[nH]c2ncc(-c3ccc(N4CCCCC4)nc3)nc12	≥ 6.00

Lookup: What reported pIC50 corresponds to COc1cc2nccc(Oc3ccc(NC(=O)c4cc(S(C)(=O)=O)n(-c5ccc(F)cc5)n4)c(F)c3)c2cc1OC on TAK1/TAB1 (Homo sapiens, UniProt O43318)?
Found: ≤ 5.00

Lookup: What value of pIC50 on TAK1/TAB1 (Homo sapiens, UniProt O43318) does N#CC(C#N)=Cc1c[nH]c2ncc(-c3ccccc3)cc12 have?
Found: < 6.00

Lookup: // fetch TAK1/TAB1 (Homo sapiens, UniProt O43318) pIC50 for CC(C)(C)OC(=O)N1CCN(c2cnc3[nH]cc(/C=C/C(N)=O)c3c2)CC1
Found: ≥ 6.00

Lookup: Requested read-out pIC50, target or system TAK1/TAB1 (Homo sapiens, UniProt O43318), entry CC(=O)c1ccc(-c2cnc3[nH]cc(/C=C/C(N)=O)c3n2)cc1
Found: ≥ 6.00

Lookup: Form entry - test system: TAK1/TAB1 (Homo sapiens, UniProt O43318); read-out: pIC50; compound: COC(=O)/C=C/c1c[nH]c2ncnc(OCC(C)C)c12
Found: 6.70

Lookup: Give recorded pIC50 with TAK1/TAB1 (Homo sapiens, UniProt O43318) for the following compound: O=C(/C=C/CO)Nc1c[nH]c2ncc(-c3ccccc3)cc12
Found: ≥ 6.00

Lookup: Short answer please: pIC50, TAK1/TAB1 (Homo sapiens, UniProt O43318), entry NC(=O)/C=C/c1c[nH]c2ncc(-c3cccc(Oc4ccccc4)c3)cc12
Found: ≥ 6.00

Lookup: Under TAK1/TAB1 (Homo sapiens, UniProt O43318): pIC50 value of O=C(Nc1c[nH]c2ncc(-c3ccccc3)cc12)C1=CCCC1 ?
Found: < 6.00
